Tested on: K562 CRISPRi cells
Assay: Perturb-seq pooled growth measurement (sgRNA counts, growth phenotype γ, relative activity)
Format: cell-based, human
Conditions: pooled growth phenotype γ of the Perturb-seq sgRNA, day 10, K562 CRISPRi cells
# gamma_day10 >= -0.4 gives true (1), anything below gives false (0)

These recorded examples may help you get a feel for the data.
CAD_ + _27440280.23-P1P2_07 (guide GGCTGGAGCGAAGCCGGGCG; listed as DNA, chemistry not fully specified) | false (0)
BCR_ + _23523092.23-P1P2_07 (guide GCGCGCGGGGCTCGTCTCAG; listed as DNA, chemistry not fully specified) | false (0)
EIF2S1_ −_67827080.23-P1P2_01 (guide GAGCGAAACGCACGCTGAGG; listed as DNA, chemistry not fully specified) | true (1)
COX11_ + _53045977.23-P1P2_05 (guide GGCTCTGGCGTCTTGGATGG; listed as DNA, chemistry not fully specified) | true (1)
HSPE1_ + _198365089.23-P1P2_01 (guide GGAGACACGCAGTCCGGCCC; listed as DNA, chemistry not fully specified) | false (0)

Ask | Please check the record RPL9_ + _39460483.23-P1P2_04 (guide GGATGTTTCAGTGCTCGTGG; listed as DNA, chemistry not fully specified) and state if its gamma_day10 is at or above -0.4.
Reply | true (1)

Ask | Determine whether measured gamma_day10 meets or exceeds -0.4 for HSPA5_ + _128003624.23-P1P2_04 (guide GAGCCGAGAAGGCGACGGTG; listed as DNA, chemistry not fully specified)
Reply | false (0)

Ask | Is gamma_day10 at least -0.4? Consider POLR2H_ + _184081251.23-P1P2_00 (guide GGGGCCACGAGAGCAGCAGA; listed as DNA, chemistry not fully specified)
Reply | false (0)

Ask | Please tell me: is the substance HSPA9_ −_137911079.23-P1P2_00 (guide GGAGCTGCGCGATGCGGTGG; listed as DNA, chemistry not fully specified) at or over -0.4 in terms of gamma_day10?
Reply | false (0)

Ask | Could you tell me if the measured gamma_day10 of ATP5E_ −_57607036.23-P1P2_00 (guide GGTGTCCAGGGGCACTCTGT; listed as DNA, chemistry not fully specified) reaches -0.4 or more?
Reply | true (1)
